Where do these numbers come from? They come from patent USRE38132E1.

# target_or_system: interaction of ICAM-1 with the Leukointegrin CD18/CD11a (LFA-1) (Homo sapiens, UniProt P05107+P20701)
# Construct: endogenous in cells; sICAM-1: made in house, secreted from transfected CHO DUX cells
# Sequence (P20701 26-1170): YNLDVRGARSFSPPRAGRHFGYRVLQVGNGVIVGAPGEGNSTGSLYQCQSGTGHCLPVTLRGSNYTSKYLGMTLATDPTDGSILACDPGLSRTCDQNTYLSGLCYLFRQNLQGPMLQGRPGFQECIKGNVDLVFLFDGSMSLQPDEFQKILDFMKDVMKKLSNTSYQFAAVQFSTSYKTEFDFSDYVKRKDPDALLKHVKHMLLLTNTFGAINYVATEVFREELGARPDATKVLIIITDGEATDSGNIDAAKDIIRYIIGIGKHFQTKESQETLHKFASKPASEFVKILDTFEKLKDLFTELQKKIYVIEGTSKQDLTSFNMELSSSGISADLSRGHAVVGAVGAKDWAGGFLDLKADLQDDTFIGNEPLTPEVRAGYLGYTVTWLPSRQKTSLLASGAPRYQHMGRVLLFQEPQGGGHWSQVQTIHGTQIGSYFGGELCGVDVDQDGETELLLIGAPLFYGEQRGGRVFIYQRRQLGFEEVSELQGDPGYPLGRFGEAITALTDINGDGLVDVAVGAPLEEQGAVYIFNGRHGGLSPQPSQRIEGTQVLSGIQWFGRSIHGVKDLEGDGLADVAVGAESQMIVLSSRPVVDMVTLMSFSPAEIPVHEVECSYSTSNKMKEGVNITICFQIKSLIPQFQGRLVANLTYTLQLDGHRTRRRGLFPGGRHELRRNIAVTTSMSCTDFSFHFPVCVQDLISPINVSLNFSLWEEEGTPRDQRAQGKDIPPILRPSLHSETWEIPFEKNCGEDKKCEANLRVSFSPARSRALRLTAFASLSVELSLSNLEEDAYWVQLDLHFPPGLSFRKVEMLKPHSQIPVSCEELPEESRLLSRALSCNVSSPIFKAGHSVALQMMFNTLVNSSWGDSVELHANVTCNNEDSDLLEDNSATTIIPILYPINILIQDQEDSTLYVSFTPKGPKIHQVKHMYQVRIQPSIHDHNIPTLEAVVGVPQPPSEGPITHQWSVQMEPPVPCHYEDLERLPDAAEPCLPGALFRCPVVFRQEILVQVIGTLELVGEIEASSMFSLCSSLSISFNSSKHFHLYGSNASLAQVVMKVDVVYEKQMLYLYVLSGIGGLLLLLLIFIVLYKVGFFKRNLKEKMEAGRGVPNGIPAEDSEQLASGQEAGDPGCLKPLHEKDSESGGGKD
# Sequence (P05107 23-769): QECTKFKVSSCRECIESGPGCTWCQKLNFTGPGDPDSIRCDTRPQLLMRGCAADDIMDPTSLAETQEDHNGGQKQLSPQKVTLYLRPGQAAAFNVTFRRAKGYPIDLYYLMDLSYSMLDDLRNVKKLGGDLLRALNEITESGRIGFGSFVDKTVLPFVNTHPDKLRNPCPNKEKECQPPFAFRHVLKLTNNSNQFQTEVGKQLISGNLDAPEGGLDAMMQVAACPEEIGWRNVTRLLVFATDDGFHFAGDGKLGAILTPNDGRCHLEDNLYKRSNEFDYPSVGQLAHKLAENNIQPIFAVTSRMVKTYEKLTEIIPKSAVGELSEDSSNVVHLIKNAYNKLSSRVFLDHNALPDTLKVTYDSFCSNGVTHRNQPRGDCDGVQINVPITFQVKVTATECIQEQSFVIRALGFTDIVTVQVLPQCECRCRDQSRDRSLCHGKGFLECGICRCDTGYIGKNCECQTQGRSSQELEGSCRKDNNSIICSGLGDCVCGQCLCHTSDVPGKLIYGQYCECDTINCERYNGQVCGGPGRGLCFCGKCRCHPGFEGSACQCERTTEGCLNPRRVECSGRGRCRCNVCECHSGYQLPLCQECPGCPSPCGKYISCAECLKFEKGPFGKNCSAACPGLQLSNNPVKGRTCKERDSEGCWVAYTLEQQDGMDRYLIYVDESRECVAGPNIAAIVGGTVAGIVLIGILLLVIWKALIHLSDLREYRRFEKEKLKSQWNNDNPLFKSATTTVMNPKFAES
# measurement_description: Assay to determine inhibition of LFA-1 binding to ICAM-1 (immunopurified LFA-1 on plate-bound sICAM-1, ELISA readout)
# experimental_context: values marked e approximated from incomplete dose-response curve
recorded_metric: Kd (nM)
Entry rule: numbers only, all in nM.

See these solved cases before continuing.
{"compound": "CN1C(=O)N(c2cc(C(F)(F)F)cc(C(F)(F)F)c2)C(=O)[C@@]1(C)Cc1ccc(Br)cc1 [Example 100]", "unit_string": "nM", "Kd": 190}
{"compound": "CN1C(=O)N(c2cc(Cl)c(Cl)c(Cl)c2)C(=O)[C@@]1(C)Cc1ccc(Br)cc1 [Example 123]", "unit_string": "nM", "Kd": 100}

Now, please, on to the next compound.
## Input I have this compound here, C[C@]1(Cc2ccc(Br)cc2)NC(=O)N(c2cc(Cl)c(Cl)c(Cl)c2)C1=O [Example 43] , and I need its recorded Kd.
## Output 170

----------
recorded_metric: melting point

See these solved cases before continuing.
{"compound": "CC1(Cc2ccc(Cl)c(Cl)c2)NC(=O)N(c2cc(Cl)cc(Cl)c2)C1=O (centres unmarked)", "melting point": "150 to 151 °C"}
{"compound": "CC1(Cc2ccc(F)c(F)c2)NC(=O)N(c2cc(Cl)cc(Cl)c2)C1=O (centres unmarked)", "melting point": "117 to 118 °C"}
{"compound": "COc1c(F)c(F)c(CC2(C)NC(=O)N(c3cc(Cl)cc(Cl)c3)C2=O)c(F)c1F (centres unmarked)", "melting point": "122 to 123 °C"}
{"compound": "CC1(Cc2ccc3c(Cl)cc(C(F)(F)F)nc3c2)NC(=O)N(c2cc(Cl)cc(Cl)c2)C1=O (centres unmarked)", "melting point": "173 to 174 °C"}
{"compound": "CC1(Cc2ccc(SC(F)(F)F)cc2)NC(=O)N(c2cc(Cl)cc(Cl)c2)C1=O (centres unmarked)", "melting point": "133 to 134 °C"}
{"compound": "Cc1cc(C)cc(CC2(C)NC(=O)N(c3cc(Cl)cc(Cl)c3)C2=O)c1 (centres unmarked)", "melting point": "> 240 °C"}

## Input I have this compound here, CC1(Cc2ccc(F)c(C(F)(F)F)c2)NC(=O)N(c2cc(Cl)cc(Cl)c2)C1=O (centres unmarked) , and I need its recorded melting point.
## Output 168 to 170 °C

## Input Subsequent entry: CC1(Cc2ccc(C(F)(F)F)c(F)c2)NC(=O)N(c2cc(Cl)cc(Cl)c2)C1=O (centres unmarked)
## Output 67 to 69 °C

## Input Subsequent entry: CC1(Cc2ccc(-c3ccccc3)cc2)NC(=O)N(c2cc(Cl)cc(Cl)c2)C1=O (centres unmarked)
## Output 61 to 63 °C

## Input Subsequent entry: CC1(Cc2cccc(SC(F)(F)F)c2)NC(=O)N(c2cc(Cl)cc(Cl)c2)C1=O (centres unmarked)
## Output 170 to 171 °C

## Input Subsequent entry: CC1(Cc2ccc(Cl)s2)NC(=O)N(c2cc(Cl)cc(Cl)c2)C1=O (centres unmarked)
## Output 55 to 56 °C
